- Tested on: KB
- TEST DETAILS: Cytotoxic activity against vincristine-resistant human oral epidermoid carcinoma cell line (KB/VJ300)
- Assay type: functional, cell-based
# IC50 per record follows
API: value field is a number in µg/mL; no unit string.

| COMPOUND | IC50 [µg/mL] |
| --- | --- |
| C[C@H](O)[C@H]1C[C@H]2C[C@H]3c4[nH]c5ccccc5c4CCN(C2)[C@@H]13 | 7.8 |
| COC(=O)[C@@]12C[C@@H]3C[C@H](C(C)(O)O)[C@@H]1N(CCc1c2[nH]c2cc(OC)ccc12)C3 | 14.5 |
| COC(=O)N1c2ccccc2C23CCN4CCCC5(CCC12[C@](O)(C(=O)OC)C5)[C@H]43 (some centres not stated) | 0.64 |

Q: GET /values?readout=IC50&item= CC[C@H]1C[C@H]2C[C@@]3(C(=O)OC)c4[nH]c5ccc(OC)cc5c4CCN(C2C#N)[C@@H]13 (some centres not stated)
A: 7

* * *

- Tested on: KB
- TEST DETAILS: Cytotoxic activity against vincristine-resistant human oral epidermoid carcinoma cell line (KB/VJ300)
- Assay type: functional, cell-based
VALUE TYPE: IC50 (µg/mL)
API: value field is a number in µg/mL; no unit string.

Q: GET /values?readout=IC50&item= CC[C@H]1C[C@@H]2C[C@@]3(C(=O)OC)c4c(c5ccccc5n4C2O)CCN[C@@H]13 (some centres not stated)
A: 2.5

Q: GET /values?readout=IC50&item= COC(=O)[C@@]12C[C@@H]3C[C@H]([C@H](C)O)[C@@H]1N(CCc1c2[nH]c2cc(OC)ccc12)C3 [ISOVOACRISTINE]
A: 18.8

Q: GET /values?readout=IC50&item= COC(=O)[C@]12C[C@H]3CC4[C@H](C)OCN(CCc5c1n(c1ccccc51)C3O)[C@@H]42 (some centres not stated)
A: 4

* * *

- System: KB
- TEST DETAILS: Cytotoxic activity against vincristine-resistant human oral epidermoid carcinoma cell line (KB/VJ300)
- Assay type: functional, cell-based
VALUE TYPE: IC50 (µg/mL)
API: value field is a number in µg/mL; no unit string.

| COMPOUND | IC50, µg/mL |
| --- | --- |
| CC[C@H]1C[C@H]2C[C@@]3(C(=O)OC)c4[nH]c5ccccc5c4CCN(C2C#N)[C@@H]13 (some centres undefined) | 1.4 |

Q: GET /values?readout=IC50&item= CC[C@H]1C[C@@H]2CN3CCc4c([nH]c5ccccc45)[C@](C(=O)OC)(C2)[C@H]13 [CORONARIDINE]
A: 2.6

* * *

- Tested on: KB
- TEST DETAILS: Cytotoxic activity against vincristine-resistant human oral epidermoid carcinoma cell line (KB/VJ300)
- Type: functional, cell-based
# IC50 per record follows

| MOLECULE | IC50 |
| --- | --- |
| CC[C@H]1C[C@@H]2CN3CC[C@]4(O)C(=Nc5ccccc54)[C@](C(=O)OC)(C2)[C@H]13 [CORONARIDINE HYDROXYINDOLENINE] | > 25 µg/mL |

Q: GET /values?readout=IC50&item= CC[C@H]1C[C@@H]2CN3CCc4c([nH]c5ccccc45)C(C)(C2)[C@H]13
A: > 25 µg/mL

Q: GET /values?readout=IC50&item= CC[C@H]1C[C@@H]2CN3CCc4c([nH]c5ccc(OC)cc45)[C@](C(=O)OC)(C2)[C@H]13
A: > 25 µg/mL

* * *

# IC50 per record follows
- Test system: KB
- TEST DETAILS: Cytotoxic activity against vincristine-resistant human oral epidermoid carcinoma cell line (KB/VJ300)
- Type: functional, cell-based

| COMPOUND | IC50 |
| --- | --- |
| COC(=O)[C@@]12C[C@@H]3C[C@H]([C@@H](C)O)[C@@H]1N(CCc1c2[nH]c2ccccc12)C3=O | > 25 mg/L |
| CC[C@H]1C[C@@H]2CN3CCc4c([nH]c5cc(OC)ccc45)[C@](C(=O)OC)(C2)[C@H]13 | > 25 mg/L |
| CCOC1[C@H]2C[C@H]([C@H](C)O)[C@@H]3N1CCc1c([nH]c4ccccc14)[C@]3(C(=O)OC)C2 (some centres undefined) | > 25 mg/L |

# next compound below
Q: GET /values?readout=IC50&item= COC(=O)[C@@]12C[C@@H]3C[C@H]([C@@H](C)O)[C@@H]1N(CCc1c2[nH]c2cc(OC)ccc12)C3
A: > 25 mg/L
